target.under.test: Arachidonate 15-lipoxygenase (Pseudomonas aeruginosa, UniProt Q9I4G8)
Sequence (Q9I4G8 whole entry): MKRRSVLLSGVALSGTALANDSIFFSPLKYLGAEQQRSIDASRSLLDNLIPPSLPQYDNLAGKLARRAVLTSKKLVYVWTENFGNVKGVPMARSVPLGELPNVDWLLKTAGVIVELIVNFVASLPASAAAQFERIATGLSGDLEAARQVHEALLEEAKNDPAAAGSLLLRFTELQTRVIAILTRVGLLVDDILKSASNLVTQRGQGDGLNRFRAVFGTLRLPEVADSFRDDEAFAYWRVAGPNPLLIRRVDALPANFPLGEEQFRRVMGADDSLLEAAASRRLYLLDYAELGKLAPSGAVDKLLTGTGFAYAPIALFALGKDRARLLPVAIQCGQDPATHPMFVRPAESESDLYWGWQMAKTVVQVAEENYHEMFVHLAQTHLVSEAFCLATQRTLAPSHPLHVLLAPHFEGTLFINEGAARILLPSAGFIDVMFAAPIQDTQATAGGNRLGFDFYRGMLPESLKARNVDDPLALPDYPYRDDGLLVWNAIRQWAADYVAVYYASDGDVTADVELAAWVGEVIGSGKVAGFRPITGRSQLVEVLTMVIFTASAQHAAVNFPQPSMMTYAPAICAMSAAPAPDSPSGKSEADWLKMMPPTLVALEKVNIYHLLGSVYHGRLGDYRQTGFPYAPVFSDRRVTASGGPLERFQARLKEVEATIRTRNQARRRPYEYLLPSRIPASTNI
method.description: LoxA Selectivity Assay
experimental.conditions: pH 7; 25 °C
Protocol: The one-point inhibition percentages were determined for human LOX inhibitors by following the formation of the conjugated diene product at 234 nm (ε = 25,000 M−1 cm−1) at an inhibitor concentration of 25 μM. All reaction mixtures were 2 mL in volume and constantly stirred using a magnetic stir bar at room temperature (22 °C) with 7 nM LoxA. […] The concentration of AA was quantitatively determined by allowing the enzymatic reaction to go to completion. […]
endpoint.label: IC50
Answer format: number, then unit.

Supply recorded IC50 for O=C(OCC#CCSc1nnc(-c2cccc3ccccc23)o1)c1ccccc1 here.
10 nM

Supply recorded IC50 for CCCCCCc1ccc(Oc2ccccc2F)c(O)c1 [PT113] here.
1000 nM

Supply recorded IC50 for CCCCCCc1ccn(Cc2ccccc2C)c(=O)c1 [PT171] here.
520 nM

Supply recorded IC50 for CC(Cc1ccc(O)c(O)c1)C(C)Cc1ccc(O)c(O)c1 (stereo not given) [LOX inhibitor, N/A] here.
500 nM

Supply recorded IC50 for CCCCCCc1ccc(Oc2ccccc2Cl)c(O)c1 [PT91] here.
2600 nM

Source: BindingDB's records for doi:10.1021/acs.biochem.6b00338
